Assay: In vivo pharmacokinetic experiment in CD-1 mice
Conditions: mouse, plasma, intravenous; CD-1 female mice, injection (1 mg/kg)
measured_attribute: AUC(0-t) (ng·h/mL)
Give just the numeric value; ng·h/mL need not be written.

Briefly, AUC(0-t) measured for COc1cc(C(=O)NC2CCN(C)CC2)ccc1Nc1ncc(C(F)(F)F)c(Oc2cccc3c2C(=O)N(C)C32CC2)n1 : 248

---

Assay: In vivo pharmacokinetic experiment in CD-1 mice
Details: mouse, plasma, iv; CD-1 female mice, injection (1 mg/kg)
measured_attribute: half-life (h)
Value expressed in h; do not type the unit.

Please fill in: half-life reported for COc1cc(C(=O)NC2CCN(C)CC2)c(F)cc1Nc1ncc(Cl)c(Oc2cccc3c2C(=O)N(C)C32CC2)n1 [Compound 117] = 1.81

Lab note: COc1cc(C(=O)NC2CCN(C)CC2)c(F)cc1Nc1ncc(C(F)(F)F)c(Oc2cccc3c2C(=O)N(C)C32CC2)n1 [Compound 4] gave half-life of 1.78

The reported value for COc1cc(N2CC3(CCN(C)CC3)C2)c(F)cc1Nc1ncc(Cl)c(Oc2cccc3c2C(=O)N(C)C32CC2)n1 [Compound 137] in terms of half-life is 3.67

Form: molecule = COc1cc(N2CC3(CCN(C)CC3)C2)ccc1Nc1ncc(C(F)(F)F)c(Oc2cccc3c2C(=O)N(C)C32CC2)n1 [Compound 79] ; half-life = 3.48
